Provenance of the data: patent US20210079087A1

# target: T1, human IL-17A (human, UniProt Q16552 24-155)
# T1 construct: The immunogen was IL-17A protein, R&D Systems Cat #3012; also called Interleukin-17A; Hu IL-17
# T1 sequence (Q16552 24-155 limits assumed): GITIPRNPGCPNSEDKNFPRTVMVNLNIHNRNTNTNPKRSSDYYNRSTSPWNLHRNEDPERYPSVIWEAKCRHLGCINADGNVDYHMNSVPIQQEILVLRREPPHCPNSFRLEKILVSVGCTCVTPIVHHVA
# assay_protocol: SPR, Biacore 8k; antibody amine-coupled to the chip, IL-17A as analyte
observed_property: kon (M⁻¹ s⁻¹)
Give bare numbers, in M⁻¹ s⁻¹.

Please review the following examples before continuing.
>>> numeric_value("REMD 155 (antibody, human IgG4 S228P, kappa, V domains shown, Humanized antibody derived from 23A4D8; also called IgG 1 (H1/L1); H1 + L1) VH: QVQLVQSGAEVKKPGASVKVSCKASGFTFTDYYMNWVRQAPGQGLEWMGDINPKNGGTIFNQNFRGRVTMTRDTSISTAYMELSRLRSDDTAVYYCARSILTGPFYFDYWGQGTLVTVSS VL: DIVMTQSPDSLAVSLGERATINCKASQSVSFAGTGLMHWYQQKPGQPPKLLIYRASNLEAGVPDRFSGSGSGTDFTLTISSLQAEDVAVYYCQQTMEYPTFGGGTKLEIKR")
"2.45e+06"
>>> numeric_value("chimeric IgG4 (murine-human chimeric antibody derived from murine antibody A4 and human IgG4) (antibody, V domains shown, also called Chimeric Ab) VH: EVQLQQSGPELVKPGASVKISCKASGFTFTDYYMNWMKQSHGKSLEWIGDINPKNGGTIFNQNFRGKATLTVDKSSSTAYMELRSLTSEDSAVYYCARSILTGPFYFDYWGQGTTLTVSS VL: DIVLTQSPASLAVSLGQRAIISCKASQSVSFAGTGLMHWYQQKSGQQPKLLISRASNLEAGVPTRFSGSGSRTDFTLNIHPVEEDDAATYYCQQTMEYPTFGGGTKLEIKR")
"1.94e+06"

Report kon for every entry below.
1. 23A4D8 (antibody, mouse IgG2a, V domains shown, also called Murine 23A4D8; parental) VH: EVQLQQSGPELVKPGASVKISCKASGFTFTDYYMNWMKQSHGKSLEWIGDINPKNGGTIFNQNFRGKATLTVDKSSSTAYMELRSLTSEDSAVYYCARSILTGPFYFDYWGQGTTLTVSS VL: DIVLTQSPASLAVSLGQRAIISCKASQSVSFAGTGLMHWYQQKSGQQPKLLISRASNLEAGVPTRFSGSGSRTDFTLNIHPVEEDDAATYYCQQTMEYPTFGGGTKLEIK
2. REMD 155.2 (antibody, human IgG4 S228P, kappa, V domains shown, Humanized antibody derived from 23A4D8; also called IgG 4 (H1/L4); H1 + L4) VH: QVQLVQSGAEVKKPGASVKVSCKASGFTFTDYYMNWVRQAPGQGLEWMGDINPKNGGTIFNQNFRGRVTMTRDTSISTAYMELSRLRSDDTAVYYCARSILTGPFYFDYWGQGTLVTVSS VL: DIVLTQSPDSLAVSLGERATINCKASQSVSFAGTGLMHWYQQKPGQQPKLLIYRASNLEAGVPDRFSGSGSGTDFTLTISSVQAEDVAVYYCQQTMEYPTFGGGTKLEIKR

Result string:
2.5e+06
2.89e+06
